Test: Viability of nonmalignant cells, Annexin V/PI assay
Format: cell-based, human
Conditions: human, nonmalignant splenic mononuclear cells, Splenic MNC (sample of r39), KPT-330 0.05-0.5 μM, CS 1-3 mM, read-out: % viability normalized for respective controls
Readout: viability at 48 h (%)
One number for each entry, in %.

Need viability at 48 h of O=C(/C=C\n1cnc(-c2cc(C(F)(F)F)cc(C(F)(F)F)c2)n1)NNc1cnccn1 [KPT-330] , thanks.
84

###

Experiment: Viability of nonmalignant cells, Annexin V/PI assay
Format: cell-based, human
Conditions: human, nonmalignant bone marrow mononuclear cells, BM MNC, KPT-330 0.05-0.5 μM, CS 1-3 mM, read-out: % viability normalized for respective controls
Readout: viability at 48 h (%)
One number for each entry, in %.

Please look up its viability at 48 h: `O=C(/C=C\n1cnc(-c2cc(C(F)(F)F)cc(C(F)(F)F)c2)n1)NNc1cnccn1`
78

###

Assay: Viability of nonmalignant cells, Annexin V/PI assay
Type: cell-based, human
Details: human, nonmalignant splenic mononuclear cells, Splenic MNC (sample of r41), KPT-330 0.05-0.5 μM, CS 1-3 mM, read-out: % viability normalized for respective controls
Readout: viability at 48 h (%)
Give bare numbers, in %.

Which viability at 48 h reading was recorded for the molecule O=C(/C=C\n1cnc(-c2cc(C(F)(F)F)cc(C(F)(F)F)c2)n1)NNc1cnccn1 [KPT-330] ?
59

###

Test: Viability of nonmalignant cells, Annexin V/PI assay
Format: cell-based, human
Conditions: human, nonmalignant peripheral blood mononuclear cells (PBMC), KPT-330 0.05-0.5 μM, CS 1-3 mM, read-out: % viability normalized for respective controls
Readout: viability at 48 h (%)
Numbers only, in %.

What measured viability at 48 h goes with `O=C(/C=C\n1cnc(-c2cc(C(F)(F)F)cc(C(F)(F)F)c2)n1)NNc1cnccn1` ?
86

###

Test: Viability of nonmalignant cells, Annexin V/PI assay
Type: cell-based, human
Conditions: human, nonmalignant splenic mononuclear cells, Splenic MNC (sample of r42), KPT-330 0.05-0.5 μM, CS 1-3 mM, read-out: % viability normalized for respective controls
Readout: viability at 48 h (%)
Answers are plain numbers, in %.

What measured viability at 48 h goes with `O=C(/C=C\n1cnc(-c2cc(C(F)(F)F)cc(C(F)(F)F)c2)n1)NNc1cnccn1` ?
58
